Hey, just so you know, these numbers are from ChEMBL document CHEMBL4689842.

Listed below: Population Membrane Permeable-Phenotype (%) values for each entry.
Tested on: Fibroblast
assayProtocol: Multiplex assay against human fibroblast
Type: toxicity, cell-based
runConditions: 48 h, 1 µM, compound concentration 1 uM, replicate 2
parameter: Population Membrane Permeable-Phenotype (%)

>>> recordednumber("CC(C)C[C@H](NC(=O)[C@H](Cc1ccccc1)NC(=O)CNC(=O)CNC(=O)[C@@H](N)Cc1ccc(O)cc1)C(=O)O [ENKEPHALIN]")
22
>>> recordednumber("CCCCN(CC)c1nc(C)nc2c1c(C)cn2-c1c(C)cc(C)cc1C.Cl")
6
>>> recordednumber("CCCCCNC(=N)N/N=C/c1c[nH]c2ccc(OC)cc12.O=C(O)/C=C\\C(=O)O [TEGASEROD MALEATE]")
12
>>> recordednumber("C=CC(=O)Nc1cc(-n2c(=O)ccc3cnc4ccc(-c5ccc(NS(C)(=O)=O)cc5)cc4c32)ccc1C")
19
>>> recordednumber("Cl.NC[C@@H]1O[C@H](C23CC4CC(CC(C4)C2)C3)Cc2c1ccc(O)c2O")
16
>>> recordednumber("Oc1cccc(-c2nc(N3CCOCC3)c3oc4ncccc4c3n2)c1 [PI-103]")
34
>>> recordednumber("N#CCNC(=O)c1ccc(-c2ccnc(Nc3ccc(N4CCOCC4)cc3)n2)cc1 [MOMELOTINIB]")
4
>>> recordednumber("C[C@@H](Oc1cc(-n2cnc3ccc(CN4CCN(C)CC4)cc32)sc1C(N)=O)c1ccccc1C(F)(F)F [GSK-461364]")
18
>>> recordednumber("N#Cc1cccc(C(=O)Nc2cc(-c3ccccc3)nn2-c2ccccc2)c1")
12
>>> recordednumber("CN(c1cc(C(F)(F)F)nc(OCCC(=O)O)n1)c1cccc2c1CCC2")
16
>>> recordednumber("CC(C)[C@H](CO)Nc1nc(Nc2cccc(Cl)c2)c2ncn(C(C)C)c2n1 [PURVALANOLA]")
16
>>> recordednumber("CC(/C=C1\\SC(=S)N(CCCC(=O)Nc2ccc(C(=O)O)c(O)c2)C1=O)=C\\c1ccccc1")
18
>>> recordednumber("Cc1ccc(S(=O)(=O)NC2c3ccccc3Oc3ccccc32)cc1")
15
>>> recordednumber("CN1C(=O)[C@@H](NC(=O)c2cc3ccccc3[nH]2)N=C(c2ccccc2)c2ccccc21 [DEVAZEPIDE]")
14
>>> recordednumber("CCCc1cc(C)[nH]c(=O)c1CNC(=O)c1cc(-c2ccc(N3CCN(C(C)C)CC3)nc2)cc2c1cnn2C(C)C")
8
>>> recordednumber("CC(C)c1cc(Nc2nc(N3CCC[C@H](N)C3)ncc2C(N)=O)cc(C(C)C)n1")
9
>>> recordednumber("CC(Cc1ccc(O)c(O)c1)C(C)Cc1ccc(O)c(O)c1 (stereo not drawn) [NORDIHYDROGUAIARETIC ACID]")
17
>>> recordednumber("Cc1c(P(=S)(c2ccccc2)c2ccccc2)n2ccccc2[n+]1C/C=C/c1ccccc1.[Br-]")
2

====

Listed below: Total Cell Count values for each entry.
System: Fibroblast
assayProtocol: Multiplex assay against human fibroblast
Format: toxicity, cell-based
runConditions: 12 h, 10 µM, compound concentration 10 uM, replicate 2
parameter: Total Cell Count

>>> recordednumber("CCOC(=O)CCNc1cc(N2CCc3ccccc3CC2)nc(-c2ccccn2)n1")
70
>>> recordednumber("Cc1ccc(NC(=O)Nc2cc(C(F)(F)F)ccc2F)cc1Nc1ccc2c(c1)NC(=O)/C2=C\\c1ccc[nH]1")
65
>>> recordednumber("Cc1c(P(=S)(c2ccccc2)c2ccccc2)n2ccccc2[n+]1C/C=C/c1ccccc1.[Br-]")
108
>>> recordednumber("CC[C@H](Nc1ncnc2[nH]cnc12)c1nc2cccc(F)c2c(=O)n1-c1ccccc1")
73
>>> recordednumber("CC[C@@H]1C(=O)N(C)c2cnc(Nc3ccc(C(=O)NC4CCN(C)CC4)cc3OC)nc2N1C1CCCC1")
89
>>> recordednumber("Cc1c(Nc2ccc(S(=O)(=O)N3CCN(C)CC3)cc2F)nc2ccc(Nc3cnn(C4CC4)c3)cn2c1=O")
72
>>> recordednumber("c1ccc(-c2oc3ncnc(NC[C@@H]4CCCO4)c3c2-c2ccccc2)cc1")
61
>>> recordednumber("CC(C)[C@H](CO)Nc1nc(Nc2cccc(Cl)c2)c2ncn(C(C)C)c2n1")
66
>>> recordednumber("CC(/C=C1\\SC(=S)N(CCCC(=O)Nc2ccc(C(=O)O)c(O)c2)C1=O)=C\\c1ccccc1")
88

====

System: HEK-293T
assayProtocol: Multiplex assay against HEK293T
Type: toxicity, cell-based
runConditions: human, 12 h, 1 µM, compound concentration 1 uM, replicate 1
Listed below: Population Pyknosed Nuclei (%) values for each entry.
parameter: Population Pyknosed Nuclei (%)

>>> recordednumber("CC(Cc1ccc(O)c(O)c1)C(C)Cc1ccc(O)c(O)c1 (stereo not drawn) [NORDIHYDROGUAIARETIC ACID]")
52
>>> recordednumber("Cc1ccc(NC(=O)Nc2cc(C(F)(F)F)ccc2F)cc1Nc1ccc2c(c1)NC(=O)/C2=C\\c1ccc[nH]1")
51
>>> recordednumber("CN1C(=O)[C@@H](NC(=O)c2cc3ccccc3[nH]2)N=C(c2ccccc2)c2ccccc21 [DEVAZEPIDE]")
52
>>> recordednumber("Oc1cccc(-c2nc(N3CCOCC3)c3oc4ncccc4c3n2)c1 [PI-103]")
77
>>> recordednumber("NC(=O)c1ccc2nc(-c3ccc(C4(N)CCC4)cc3)c(-c3ccccc3)n2n1 [BAY-1125976]")
17
>>> recordednumber("CC(C)C[C@H](NC(=O)[C@H](Cc1ccccc1)NC(=O)CNC(=O)CNC(=O)[C@@H](N)Cc1ccc(O)cc1)C(=O)O [ENKEPHALIN]")
60
>>> recordednumber("C=CC(=O)Nc1cc(-n2c(=O)ccc3cnc4ccc(-c5ccc(NS(C)(=O)=O)cc5)cc4c32)ccc1C")
62
>>> recordednumber("Cc1c(Nc2ccc(S(=O)(=O)N3CCN(C)CC3)cc2F)nc2ccc(Nc3cnn(C4CC4)c3)cn2c1=O")
33

====

Test system: HEK-293T
assayProtocol: Multiplex assay against HEK293T
Format: toxicity, cell-based
runConditions: human, 12 h, 10 µM, compound concentration 10 uM, replicate 1
parameter: Population Hoechst High Intensity Objects (%)

>>> recordednumber("Cl.Cn1c2c(c3ccc(Cl)c(Cl)c31)C(C#N)C1(CCNCC1)NC2=O (stereo not drawn)")
20
>>> recordednumber("CCCc1cc(C)[nH]c(=O)c1CNC(=O)c1cc(-c2ccc(N3CCN(C(C)C)CC3)nc2)cc2c1cnn2C(C)C")
20
>>> recordednumber("C=CC(=O)Nc1cc(-n2c(=O)ccc3cnc4ccc(-c5ccc(NS(C)(=O)=O)cc5)cc4c32)ccc1C")
16
>>> recordednumber("N#Cc1cccc(C(=O)Nc2cc(-c3ccccc3)nn2-c2ccccc2)c1")
14
>>> recordednumber("Cc1c(P(=S)(c2ccccc2)c2ccccc2)n2ccccc2[n+]1C/C=C/c1ccccc1.[Br-]")
21
>>> recordednumber("C[C@@H](Oc1cc(-n2cnc3ccc(CN4CCN(C)CC4)cc32)sc1C(N)=O)c1ccccc1C(F)(F)F")
22
>>> recordednumber("CC(Cc1ccc(O)c(O)c1)C(C)Cc1ccc(O)c(O)c1 (stereo not drawn) [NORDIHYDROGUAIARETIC ACID]")
15
>>> recordednumber("CS(=O)(=O)N1CCCC(NC(=O)[C@H](CCC2CCCCC2)NC(=O)c2ccc(CNc3ncnc4c3nnn4-c3ccccc3)cc2)C1 (stereo partly drawn)")
17

====

Test system: HEK-293T
assayProtocol: Multiplex assay against HEK293T
Assay type: toxicity, cell-based
runConditions: human, 48 h, 10 µM, compound concentration 10 uM, replicate 1
parameter: Total Cell Count

>>> recordednumber("c1ccc(-c2oc3ncnc(NC[C@@H]4CCCO4)c3c2-c2ccccc2)cc1")
268
>>> recordednumber("CCCc1cc(C)[nH]c(=O)c1CNC(=O)c1cc(-c2ccc(N3CCN(C(C)C)CC3)nc2)cc2c1cnn2C(C)C")
241
>>> recordednumber("CC(/C=C1\\SC(=S)N(CCCC(=O)Nc2ccc(C(=O)O)c(O)c2)C1=O)=C\\c1ccccc1")
339
>>> recordednumber("C[C@@H](Oc1cc(-n2cnc3ccc(CN4CCN(C)CC4)cc32)sc1C(N)=O)c1ccccc1C(F)(F)F")
287

====

System: Fibroblast
assayProtocol: Multiplex assay against human fibroblast
Format: toxicity, cell-based
runConditions: 48 h, 10 µM, compound concentration 10 uM, replicate 1
parameter: Population Apoptotic (%)

>>> result("Oc1cccc(-c2nc(N3CCOCC3)c3oc4ncccc4c3n2)c1")
"46%"
>>> result("CC(C)[C@H](CO)Nc1nc(Nc2cccc(Cl)c2)c2ncn(C(C)C)c2n1")
"85%"
>>> result("Cl.NC[C@@H]1O[C@H](C23CC4CC(CC(C4)C2)C3)Cc2c1ccc(O)c2O")
"66%"

====

System: HEK-293T
assayProtocol: Multiplex assay against HEK293T
Type: toxicity, cell-based
runConditions: human, 24 h, 10 µM, compound concentration 10 uM, replicate 1
Listed below: Population Hoechst High Intensity Objects (%) values for each entry.
parameter: Population Hoechst High Intensity Objects (%)

>>> recordednumber("CCCc1cc(C)[nH]c(=O)c1CNC(=O)c1cc(-c2ccc(N3CCN(C(C)C)CC3)nc2)cc2c1cnn2C(C)C")
19
>>> recordednumber("CN(c1cc(C(F)(F)F)nc(OCCC(=O)O)n1)c1cccc2c1CCC2")
11
>>> recordednumber("CC(/C=C1\\SC(=S)N(CCCC(=O)Nc2ccc(C(=O)O)c(O)c2)C1=O)=C\\c1ccccc1")
16
